pIC50: −log10 of the molar value.
// note: pIC50 values for Tyrosine-protein kinase JAK1 (Homo sapiens, UniProt P23458) were reported in different studies

Items follow; give pIC50 for each.
1. N#C/C(=C/c1cccs1)C(=O)Nc1cccc2c1ccn2-c1ccnc(NC(=O)C2CC2)c1
2. CS(=O)(=O)N1CC(CNC(=O)c2noc3c2CN(c2ncnc4[nH]ccc24)CC3)C1
3. Cc1cnc2nc1NCCCCCNC(=O)c1c(F)cc(cc1F)-c1cnc(F)c(c1)N2
4. CN(c1ncnc2[nH]ccc12)C1CCC2(CC1)CCN(C(=O)CCS(C)(=O)=O)CC2
5. O=C(Nc1cccc(C(F)(F)F)c1)c1ccc(Cl)c(-c2ccc3c(c2)[nH]c2ncncc23)c1
6. O=C1NCCCCOCc2cc(cc(N3CCOCC3)c2)Nc2nccc(n2)-c2ccc1cc2
7. O=C(NCCN1CCS(=O)(=O)CC1)c1noc2c1CN(c1ncnc3[nH]ccc13)CC2

Result:
1: < 6.00; 2: 5.70 to 6.30; 3: 5.00 to 6.00; 4: 6.00 to 7.00; 5: ≥ 6.30; 6: 6.00 to 7.00; 7: 5.70 to 6.30

----------
// note: IC50 values for UniProt:P23458 were reported in different studies

Items follow; give IC50 for each.
1. CC(C)OC(=O)NC12CC(n3cnc4cnc5[nH]ccc5c43)(C1)C2
2. O=C1Nc2ccc(cc2)OCc2cc(ccc2OCC2CC(F)(F)C2)Nc2nccc(n2)-c2ccc1cc2[N+](=O)[O-]
3. N#CCC[C@H]1CCC[C@H](Nc2c(C(=O)O)cnc3[nH]ccc23)C1
4. CN(c1ncnc2[nH]ccc12)N1CCC(C(=O)NCC(F)(F)F)C1 (centres unmarked)

Result:
1: 64 nM; 2: > 10000 nM; 3: 100 to 1000 nM; 4: < 10 nM

Items follow; give IC50 for each.
1. C[C@]1(F)CCC[C@H]1Nc1c(C(N)=O)cnn2cc(-c3cccc(C(N)=O)c3)cc12 (racemic)
2. CN(c1ncnc2[nH]ccc12)[C@@H]1C[C@@H]2CN(C(=O)CO)C[C@@H]2C1
3. Cc1cc(Nc2ncc(C)c(N3CC(CC#N)(NC(=O)c4cccc(F)c4F)C3)n2)sn1
4. O=C(NC12CC(n3cnc4cnc5[nH]ccc5c43)(C1)C2)c1ccc(Cl)cc1
5. Nc1cc2ccc1-c1ccnc(n1)Nc1ccc(OCC3CCC3)c(c1)COCCCCNC2=O
6. CS(=O)(=O)c1cnc(-c2cnc3[nH]ccc3c2N[C@@H]2CCCN(CCC#N)C2)s1

Result:
["1.4 nM", "21 nM", "< 10 nM", "82.6 nM", "101 to 1000 nM", "10 to 100 nM"]

----------
pIC50: −log10 of the molar value.
// note: pIC50 values for Tyrosine-protein kinase JAK1 (Homo sapiens, UniProt P23458) were reported in different studies

Solved entries (count: 7):
CCOC(=O)Cn1cc(Nc2ncc3ccn(CC4CCCCC4)c3n2)cn1 ... > 7.00
CCS(=O)(=O)N1CC(CC#N)(n2cc(-c3nc(Nc4ccnnc4)nc4ccsc34)cn2)C1 ... 6.00 to 6.30
Cc1cnc2nc1NCCCCCNC(=O)c1ccc(c(F)c1)-c1cnc(F)c(c1)N2 ... 7.00 to 7.96
N#CCC1(n2cc(-c3ncnc4[nH]ccc34)cn2)CN(C2CCN(C(=O)c3ccc(-c4cccc5ccncc45)c(F)c3)CC2)C1 ... ≥ 8.30
CC1(C)[C@H](Nc2c(C(N)=O)cnn3cc(NS(=O)(=O)c4ccccc4)cc23)CC[C@@]1(C)O (racemic) ... 6.62
CC(C)(O)c1nc2cc(Nc3ncc(Cl)c(NC4CCN(c5ccc(C#N)cn5)CC4)n3)ccn2n1 ... 9.22
CC(=O)N1CC(CCF)(n2cc(-c3nc(-c4cnn(C)c4)cc4nccn34)cn2)C1 ... < 6.00

Please find the next compound below.
Request: State the recorded pIC50 for this entry: `Clc1cnc2nc1NCCc1cccc(c1)OCCCc1cccc(c1)N2`
Result: 6.52
